Observed MIC for Bacillus sub-tillis ATCC 6633, reported per entry below.
Numbers only here, please. The scale is µg/mL.

Solved entries:
CCn1cc(C(=O)O)c(=O)c2sc(Cl)cc21 [Compound A] :: 12.5
CCn1cc(C(=O)O)c(=O)c2sc(Br)cc21 [Compound B] :: 6.25
CCn1cc(C(=O)O)c(=O)c2sc(I)cc21 [Compound C] :: 1.56

With those in mind, consider the next compound.
IN: Please look at CCn1cc(C(=O)O)c(=O)c2ccc(C)nc21 [Nalidixic acid, reference compound] and tell me its recorded MIC on Bacillus sub-tillis ATCC 6633.
OUT: 3.13

====

System: Proteus mirabilis 1287
outcome measure: MIC (µg/mL)
Numbers only here, please. The scale is µg/mL.

Solved entries:
CCn1cc(C(=O)O)c(=O)c2sc(Cl)cc21 [Compound A] :: 6.25
CCn1cc(C(=O)O)c(=O)c2sc(Br)cc21 [Compound B] :: 3.13
CCn1cc(C(=O)O)c(=O)c2sc(I)cc21 [Compound C] :: 0.78

IN: For CCn1cc(C(=O)O)c(=O)c2ccc(C)nc21 [Nalidixic acid, reference compound] , write its MIC.
OUT: 3.13

====

# reported MIC; entries follow
System: Staphylococcus aureus 209-P

IN: For CCn1cc(C(=O)O)c(=O)c2sc(I)cc21 , write its MIC.
OUT: 25 µg/mL

====

Experiment: in vivo
Conditions: mouse, oral administration to mice
outcome measure: LD50 (mg/kg)
Numbers only here, please. The scale is mg/kg.

IN: For CCn1cc(C(=O)O)c(=O)c2sc(I)cc21 , write its LD50.
OUT: 2800

====

Tested on: Staphylococcus aureus 209-P
outcome measure: MIC

Solved entries:
CCn1cc(C(=O)O)c(=O)c2sc(Cl)cc21 :: > 100 µg/mL
CCn1cc(C(=O)O)c(=O)c2sc(Br)cc21 :: > 100 µg/mL

IN: Please look at CCn1cc(C(=O)O)c(=O)c2ccc(C)nc21 [Nalidixic acid, reference compound] and tell me its recorded MIC on Staphylococcus aureus 209-P.
OUT: > 100 µg/mL
